- ASSAY REMARKS: Growth inhibition of human HEK293 cells after 72 hrs by SRB assay
- Assay type: cell-based
- CONDITION INFO: read-out: ED50
This section presents molecules with their documented GI50 at 72 h values.
Give a bare numeral; the unit µM is implied.

1. C=C1CC[C@@H]2[C@](C)(COC(C)=O)[C@H](O)CC[C@@]2(C)[C@@H]1/C=C/C1=CCOC1=O: 27.8
2. C[C@]1(COC(c2ccccc2)(c2ccccc2)c2ccccc2)[C@H]2CC[C@@]3(CO3)[C@@H](/C=C/C3=CCOC3=O)[C@]2(C)CC[C@H]1O: 5.39

Task: Entry `CC(=O)O[C@@H]1CC[C@]2(C)[C@H](CC[C@@]3(CO3)[C@H]2/C=C/C2=CCOC2=O)[C@]1(C)CO[Si](C(C)C)(C(C)C)C(C)C` has what GI50 at 72 h?
Output: 7.39

====

- System: A549
- ASSAY REMARKS: Growth inhibition of human A549 cells after 72 hrs by SRB assay
- Type: functional
- CONDITION INFO: A549, 72 h, read-out: ED50 (the source's name)
READOUT: EC50 (µM)
Give a bare numeral; the unit µM is implied.

1. C=C1CC[C@@H]2[C@](C)(CO)[C@H](O)CC[C@@]2(C)[C@@H]1/C=C/C1=CCOC1=O: 28.2
2. CC(C)[Si](OC[C@@]1(C)[C@H]2CC[C@@]3(CO3)[C@@H](/C=C/C3=CCOC3=O)[C@]2(C)CC[C@H]1O)(C(C)C)C(C)C: 6.58
3. CC(C)(C)[Si](C)(C)OC[C@@]1(C)[C@H]2CC[C@@]3(CO3)[C@@H](/C=C/C3=CCOC3=O)[C@]2(C)CC[C@H]1O: 9.36
4. C=C1CC[C@@H]2[C@](C)(CO[Si](C)(C)C(C)(C)C)[C@H](O)CC[C@@]2(C)[C@@H]1/C=C/C1=CCOC1=O: 17.2
5. C=C1CC[C@@H]2[C@](C)(CO[Si](C(C)C)(C(C)C)C(C)C)[C@H](O)CC[C@@]2(C)[C@@H]1/C=C/C1=CCOC1=O: 7.95

Task: Entry `CC(=O)O[C@@H]1CC[C@]2(C)[C@H](CC[C@@]3(CO3)[C@H]2/C=C/C2=CCOC2=O)[C@]1(C)CO[Si](C(C)C)(C(C)C)C(C)C` has what EC50?
Output: 8.65

====

- ASSAY REMARKS: Growth inhibition of human KKU-M213 cells after 72 hrs by SRB assay
- Format: functional
- CONDITION INFO: KKU-M213, 72 h, read-out: ED50 (the source's name)
READOUT: EC50 (µM)
Give a bare numeral; the unit µM is implied.

1. C=C1CC[C@@H]2[C@](C)(COC(C)=O)[C@H](OC(C)=O)CC[C@@]2(C)[C@@H]1/C=C/C1=CCOC1=O: 37.3
2. CC(=O)O[C@@H]1CC[C@]2(C)[C@H](CC[C@@]3(CO3)[C@H]2/C=C/C2=CCOC2=O)[C@]1(C)CO[Si](C(C)C)(C(C)C)C(C)C: 7.22
3. CC(=O)OC[C@@]1(C)[C@H]2CC[C@@]3(CO3)[C@@H](/C=C/C3=CCOC3=O)[C@]2(C)CC[C@H]1O: 48.9
4. C=C1CC[C@@H]2[C@](C)(CO[Si](C(C)C)(C(C)C)C(C)C)[C@H](OC(C)=O)CC[C@@]2(C)[C@@H]1/C=C/C1=CCOC1=O: 12.6
5. C=C1CC[C@@H]2[C@](C)(COC(c3ccccc3)(c3ccccc3)c3ccccc3)[C@H](O)CC[C@@]2(C)[C@@H]1/C=C/C1=CCOC1=O: 5.42
6. CC(=O)O[C@@H]1CC[C@]2(C)[C@H](CC[C@@]3(CO3)[C@H]2/C=C/C2=CCOC2=O)[C@]1(C)CO[Si](C)(C)C(C)(C)C: 19.1
7. C=C1CC[C@@H]2[C@](C)(COC(c3ccccc3)(c3ccccc3)c3ccccc3)[C@H](OC(C)=O)CC[C@@]2(C)[C@@H]1/C=C/C1=CCOC1=O: 9.98
8. CC(C)(C)[Si](C)(C)OC[C@@]1(C)[C@H]2CC[C@@]3(CO3)[C@@H](/C=C/C3=CCOC3=O)[C@]2(C)CC[C@H]1O: 8.57
9. Cc1c2ccncc2c(C)c2c1[nH]c1ccccc12: 4.75
10. CC(C)(C)[Si](OC[C@@]1(C)[C@H]2CC[C@@]3(CO3)[C@@H](/C=C/C3=CCOC3=O)[C@]2(C)CC[C@H]1O)(c1ccccc1)c1ccccc1: 3.08

# context switch: different compound, same EC50
Task: Entry `C=C1CC[C@@H]2[C@](C)(CO[Si](C)(C)C(C)(C)C)[C@H](OC(C)=O)CC[C@@]2(C)[C@@H]1/C=C/C1=CCOC1=O` has what EC50?
Output: 12.1
